pKd: −log10 of the molar value.
This section lists pKd readings for UniProt P05230.
Sequence (P05230 whole entry): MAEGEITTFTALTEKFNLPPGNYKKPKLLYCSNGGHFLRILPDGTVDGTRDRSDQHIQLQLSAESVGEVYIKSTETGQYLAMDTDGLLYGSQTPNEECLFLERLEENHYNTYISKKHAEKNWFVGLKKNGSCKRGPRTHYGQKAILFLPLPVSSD
PROPERTY_NAME: pKd

P: CO[C@@H]1O[C@H](COS(=O)(=O)O)[C@@H](O[C@H]2O[C@H](COS(=O)(=O)O)[C@H](OC)[C@H](OC)[C@H]2OS(=O)(=O)O)[C@H](OS(=O)(=O)O)[C@H]1OS(=O)(=O)O
Q: CO[C@@H]1O[C@H](COS(=O)(=O)O)[C@@H](O[C@H]2O[C@H](CO)[C@H](O)[C@H](O)[C@H]2OS(=O)(=O)O)[C@H](OS(=O)(=O)O)[C@H]1OS(=O)(=O)O
R: CO[C@@H]1O[C@H](COS(=O)(=O)O)[C@@H](O[C@H]2O[C@H](COS(=O)(=O)O)[C@H](O)[C@H](O)[C@H]2OS(=O)(=O)O)[C@H](OS(=O)(=O)O)[C@H]1OS(=O)(=O)O
Incoming: Put the entries in order of pKd, starting with the largest number. Give your ranking as a list of the labels in the requested order.
Outgoing: R, P, Q
